This listing pairs compounds with measured IC50.
Target: Ba/F3 cells TPM3-TRKA (Homo sapiens, UniProt P04629)
Construct: the other entry of the earlier key: TPM3 (P06753, Tropomyosin alpha-3 chain)
Sequence (P04629 510-796 limits assumed): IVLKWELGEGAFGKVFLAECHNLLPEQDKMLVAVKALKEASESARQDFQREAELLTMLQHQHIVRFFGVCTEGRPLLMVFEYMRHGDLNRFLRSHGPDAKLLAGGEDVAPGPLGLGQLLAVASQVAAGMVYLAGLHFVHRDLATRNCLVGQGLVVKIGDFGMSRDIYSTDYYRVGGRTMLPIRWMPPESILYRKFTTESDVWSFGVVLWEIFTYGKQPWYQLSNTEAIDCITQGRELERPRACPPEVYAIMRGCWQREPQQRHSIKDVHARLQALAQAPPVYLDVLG
Experiment: Ba/F3 cell proliferation assay, TPM3-TRKA
Details: 72 hours, CellTiter-Glo, read-out: TPM3-NTRK1-wt IC50

Compound	IC50
Cc1nc2c(s1)-c1ccc(F)cc1[C@@H](C)Oc1cc(cnc1N)-c1c(C#N)nn(C)c1C2	> 500 nM
C[C@H]1Oc2cc(cnc2N)-c2c(C#N)noc2Cn2nccc2-c2ccc(F)cc21	> 500 nM

Output measured IC50 for this item: `C[C@H]1Oc2cc(cnc2N)-c2c(C3CCC3)nnn2Cc2nn(C)nc2-c2ccc(F)cc21`
> 500 nM

Output measured IC50 for this item: `Cc1nn(CC2CC2)c2c1Cc1nn(C)nc1-c1c(F)cc(F)cc1[C@@H](C)Oc1cc-2cnc1N`
> 500 nM

Output measured IC50 for this item: `CCn1ncc2c1-c1cnc(N)c(c1)O[C@H](C)c1cc(F)ccc1-c1cc(OC)nn1C2`
50 to 500 nM

Output measured IC50 for this item: CCn1ncc2c1-c1cnc(N)c(c1)OC(C)c1cc(F)ccc1-c1cccnc1C2 (centres unmarked)
50 to 500 nM

Output measured IC50 for this item: `CCn1ncc2c1-c1cnc(N)c(c1)O[C@H](C)c1cc(F)ccc1-c1cn(C)nc1C2`
> 500 nM

Output measured IC50 for this item: `C[C@H]1Oc2cc(cnc2N)-c2c(cnn2C2CCC2)Cn2ncc(C#N)c2-c2ccc(F)cc21`
> 500 nM

All values here come from patent US12054498B2.
